From: patent US6509033

Target: 'Empty' HLA-DR1 purified from insect cells expressing recombinant DR1 cDNA (human)
outcome measure: Ki (nM)
Express the result in nM but write the number alone.

response.value for LPKPPKPVSKMRMATPLLMQALPM (modifications not checked) [Invariant Chain (Ii) 98-121] (field: Ki) = 33
